# System: M. tuberculosis Rifa-R ATCC 35838
# assay: microbe, parasite or virus in culture
# Type: cell-based
# setup_conditions: Mycobacterium tuberculosis, ATCC35838
// reported MIC per item

molecule: Cc1ccc(/C=N\NC(=O)c2nnc(-c3ccncc3)o2)cc1
MIC: > 64 µg/mL
//
molecule: Cc1ccc(C=NNC(=O)c2nnc(-c3ccccc3)o2)cc1 (mixture of isomers)
MIC: > 64 µg/mL
//
molecule: O=C(N/N=C\c1ccc(Cl)cc1)c1nnc(-c2ccccc2)o1
MIC: > 64 µg/mL
//
molecule: O=C(N/N=C\c1ccncc1)c1nnc(-c2ccccc2)o1
MIC: > 64 µg/mL
//
molecule: O=C(N/N=C\c1ccc[nH]1)c1nnc(-c2ccncc2)o1
MIC: > 64 µg/mL
//
molecule: O=C(N/N=C\c1ccc(Cl)cc1)c1nnc(-c2ccncc2)o1
MIC: > 64 µg/mL
//
molecule: O=C(N/N=C\c1ccccc1)c1nnc(-c2ccncc2)o1
MIC: > 64 µg/mL
//
molecule: O=C(N/N=C\c1ccco1)c1nnc(-c2ccncc2)o1
MIC: > 64 µg/mL
//
molecule: CO[C@H]1/C=C/O[C@@]2(C)Oc3c(C)c(O)c4c(O)c(c(/C=N/N5CCN(C)CC5)c(O)c4c3C2=O)NC(=O)/C(C)=C\C=C\[C@H](C)[C@H](O)[C@@H](C)[C@@H](O)[C@@H](C)[C@H](OC(C)=O)[C@@H]1C [RIF, reference compound]
MIC: > 64 µg/mL
//
molecule: O=C(N/N=C\c1ccncc1)c1nnc(-c2ccncc2)o1
MIC: > 64 µg/mL
//
molecule: O=C(N/N=C\c1ccc[nH]1)c1nnc(-c2ccccc2)o1
MIC: > 64 µg/mL
//
molecule: O=C(N/N=C\c1ccccc1)c1nnc(-c2ccccc2)o1
MIC: > 64 µg/mL
